- Test system: E. coli assay strain Km3
- Assay type: cell-based
- statedConditions: library L8 hits; M9 Xgal colony assay; ratio IND (200 ppb Cs, 24 hrs) / REP (48 hrs)
Please respond with Satisfied when measured F. IND = fold induction: induction with 200 ppb Cs at 24 hrs/repression at 48 hrs is strictly beneath 3, and with Not satisfied in all other cases.

Completed entries (count: 9):
INSERT INTO results (molecule, labelclass) VALUES
  ('L8-3A06 (protein, Sulfonylurea responsive repressor) MARLDKSKVINSALELLNEVGIEGLTTRKLAQKLGVEQPTLYWHVKNKRALLDALAIEMMDRHQTHYLPLEGESWQDFLRNNAKSCRNALLSHRDGAKVCLGTRWTEQQYESAENMLAFLTQQGFSLENALYAVSAVRVFTLGAVLFDQESQVAKEERETPTTDSMPPLLRQAWELKDHQGAEPAFLFGLELIISGLEKQLKRESGS', 'Satisfied'),
  ('L8-2H01 (protein, Sulfonylurea responsive repressor) MARLDKSKVINSALELLNEVGIEGLTTRKLAQKLGVEQPTLYWHVKNKRALLDALAIEMMDRHQTHYSPLEGESWQDFLRNNAKSCRRALLSHRDGAKVCLGTRWTEQQYESAENMLAFLTQQGFSLENALYALEAVRVFTLGAVLFDQESQVAKEERETPTTDSMPPLLRQAWELKDHQGAEPAFLFGLELIIRGLEKQLKRESGS', 'Satisfied'),
  ('L8-3A07 (protein, Sulfonylurea responsive repressor) MARLDKSKVINSALELLNEVGIEGLTTRKLAQKLGVEQPTLYWHVKNKRALLDALAIEMMDRHQTHYSPLEGESWQDFLRNNAKSMRCALLSHRDGAKVCLGTRWTEQQYESAENMLAFLTQQGFSLENALYAVSAVRVFTLGWVLFDQESQVAKEERETPTTDSMPPLLRQAWELKDHQGAEPAFLFGLELIIAGLEKQLKRESGS', 'Satisfied'),
  ('L8-1A03 (protein, Sulfonylurea responsive repressor) MARLDKSKVINSALELLNEVGIEGLTTRKLAQKLGVEQPTLYWHVKNKRALLDALAIEMMDRHQTHYSPLEGESWQDFLRNNAKSCRNALLSHRDGAKVCLGTRWTEQQYESAENMLAFLTQQGFSLENALYALDAVRVFTLGAVLFDQESQVAKEERETPTTDSMPPLLRQAWELKDHQGAEPAFLFGLELIIAGLEKQLKRESGS', 'Not satisfied'),
  ('L8-3A05 (protein, Sulfonylurea responsive repressor) MARLDKSKVINSALELLNEVGIEGLTTRKLAQKLGVEQPTLYWHVKNKRALLDALAIEMMDRHQTHYSPLEGESWQDFLRNNAKSCRNALLSHRDGAKVCLGTRWTEQQYESAENMLAFLTQQGFSLENALYAVSAVRVFTLGAVLFDQESQVAKEERETPTTDSMPPLLRQAWELKDHQGAEPAFLFGLELIISGLEKQLKSESGS', 'Not satisfied'),
  ('L8-1B12 (protein, Sulfonylurea responsive repressor) MARLDKSKVINSALELLNEVGIEGLTTRKLAQKLGVEQPTLYWHVKNKRALLDALAIEMMDRHQTHYSPLEGESWQDFLRNNAKSWRCALLSHRDGAKVCLGTRWTEQQYESAENMLAFLTQQGFSLENALYALEAVRVFTLGWVLFDQESQVAKEERETPTTDSMPPLLRQAWELKDHQGAEPAFLFGLELIIAGLEKQLKAESGS', 'Not satisfied'),
  ('L8-3B08 (protein, Sulfonylurea responsive repressor) MARLDKSKVINSALELLNEVGIEGLTTRKLAQKLGVEQPTLYWHVKNKRALLDALAIEMMDRHQTHYSPLEGESWQDFLRNNAKSLRCALLSHRDGAKVCLGTRWTEQQYESAENMLAFLTQQGFSLENALYAVDAARVFTLGWVLFDQESQVAKEERETPTTDSMPPLLRQAWELKDHQGAEPAFLFGLELIIRGLEKQLKRESGS', 'Not satisfied'),
  ('L8-3F08 (protein, Sulfonylurea responsive repressor) MARLDKSKVINSALELLNEVGIEGLTTRKLAQKLGVEQPTLYWHVKNKRALLDALAIEMMDRHQTHYSPLEGESWQDFLRNNAKSCRNALLSHRDGAKVVLGTRWTEQQYESAENMLAFLTQQGFSLENAMYALEAARIFTLGWVLFDQESQVAKEERETPTTDSMPPLLRQAWELKDHQGAEPAFLFGLELIIRGLEKQLKSESGS', 'Satisfied'),
  ('L8-3A04 (protein, Sulfonylurea responsive repressor) MARLDKSKVINSALELLNEVGIEGLTTRKLAQKLGVEQPTLYWHVKNKRALLDALAIEMMDRHQTHYSPLEGESWQDFLRNNAKSCRRALLSHRDGAKVCLGTRWTEQQYESAENMLAFLTQQGFSLENALYAVSAVRVFTLGAVLFDQESQVAKEERETPTTDSMPPLLRQAWELKDHQGAEPAFLFGLELIIRGLEKQLKRECGS', 'Not satisfied');

As a next step, examine the molecule that follows.
(Q) Check if F. IND = fold induction: induction with 200 ppb Cs at 24 hrs/repression at 48 hrs falls below 3 for L8-3F09 (protein, Sulfonylurea responsive repressor) MARLDKSKVINSALELLNEVGIEGLTTRKLAQKLGVEQPTLYWHVKNKRALLDALAIEMMDRHQTHYSPLEGESWQDFLRNNAKSLRCALLSHRDGAKVCLGTRWTEQQYESAENMLAFLTQQGFSLENALYALTAVRVFTLGWVLFDQESQVAKEERETPTTDSMPPLLRQAWELKDHQGAEPAFLFGLELIIAGLEKQLKRESGS .
(A) Not satisfied
